- test target: Orexin receptor type 2 (Homo sapiens)
- Sequence (O43614 whole entry): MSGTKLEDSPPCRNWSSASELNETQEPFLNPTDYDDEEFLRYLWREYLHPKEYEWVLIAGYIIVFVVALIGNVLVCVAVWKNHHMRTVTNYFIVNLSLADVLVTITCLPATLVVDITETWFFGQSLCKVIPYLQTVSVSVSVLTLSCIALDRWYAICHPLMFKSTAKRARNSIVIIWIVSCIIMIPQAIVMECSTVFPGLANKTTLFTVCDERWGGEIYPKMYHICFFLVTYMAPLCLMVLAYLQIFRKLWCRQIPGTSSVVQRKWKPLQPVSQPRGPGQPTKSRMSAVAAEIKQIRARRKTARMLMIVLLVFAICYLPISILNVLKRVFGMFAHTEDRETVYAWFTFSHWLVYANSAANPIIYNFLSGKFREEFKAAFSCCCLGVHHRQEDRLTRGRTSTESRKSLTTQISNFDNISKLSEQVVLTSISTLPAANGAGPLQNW
- assay explanation: Antagonist activity at human OX2 receptor expressed in CHO cells assessed as inhibition of orexin A-induced calcium influx by FLIPR assay
Each entry below carries its reported IC50.
// units = nM; emit number, no label

# annotated cases, reported IC50 shown
CCCc1nc(Cl)c2n1CCN([C@@H](C(=O)NC)c1ccccc1)[C@H]2CCc1ccc(C(F)(F)F)cc1: 60
CCc1nc(C#N)c2n1CCN([C@@H](C(=O)NC)c1ccccc1)C2CCc1ccc(C(F)(F)F)cc1 (mixture of isomers): 10
C=Cc1nc(CC)n2c1C(CCc1ccc(C(F)(F)F)cc1)N([C@@H](C(=O)NC)c1ccccc1)CC2 (single isomer, unassigned): 23
CNC(=O)[C@@H](c1ccccc1)N1CCn2c(C(C)C)nc(Cl)c2[C@@H]1CCc1ccc(C(F)(F)F)cc1: 11
CCc1nc(C(=O)NC)c2n1CCN([C@@H](C(=O)NC)c1ccccc1)C2CCc1ccc(C(F)(F)F)cc1 (stereo partly drawn): 38

Prompt line: Return IC50 measured with Orexin receptor type 2 (Homo sapiens) given this molecule: CCc1nc(C(C)C)c2n1CCN([C@@H](C(=O)NC)c1ccccc1)C2CCc1ccc(C(F)(F)F)cc1 (stereo partly drawn)
Response line: 2900

Prompt line: Consider next the molecule CNC(=O)[C@@H](c1ccccc1)N1CCn2c(C)nc(Cl)c2[C@@H]1CCc1ccc(C(F)(F)F)cc1 in the same way.
Response line: 13

Prompt line: Consider next the molecule CCc1nc(Cl)c2n1CCN([C@@H](C(=O)NC)c1ccccc1)[C@H]2CCc1ccc(C(F)(F)F)cc1 in the same way.
Response line: 9

Prompt line: Consider next the molecule CCc1nc(I)c2n1CCN([C@@H](C(=O)NC)c1ccccc1)C2CCc1ccc(C(F)(F)F)cc1 (mixture of isomers) in the same way.
Response line: 23

Prompt line: Consider next the molecule CCc1ncc2n1CCN([C@@H](C(=O)NC)c1ccccc1)C2CCc1ccc(C(F)(F)F)cc1 (mixture of isomers) in the same way.
Response line: 194

---

- assay explanation: Ratio of drug level in brain to plasma in Wistar rat at 100 mg/kg, po after 3 hrs
- Type: ADME, organism-based
- Set-up: dose 100 mg/kg, route oral
- details: read-out: BPR
endpoint: Kp at 3 h
The reply should be a number, written without any unit.

CCc1nc(Cl)c2n1CCN([C@@H](C(=O)NC)c1ccccc1)[C@H]2CCc1ccc(C(F)(F)F)cc1: 0.07

Switching to the query record.
Prompt line: GET /values?readout=Kp at 3 h&item= CNC(=O)[C@@H](c1ccccc1)N1CCn2c(C3CC3)nc(Cl)c2[C@@H]1CCc1ccc(C(F)(F)F)cc1
Response line: 0.06
